Reference source: the RNAGym collection of RNA variant scans (doi:10.7554/elife.80360)

Give self-cleavage for every item shown.
B1: HDV Ribozyme (parent)
chain: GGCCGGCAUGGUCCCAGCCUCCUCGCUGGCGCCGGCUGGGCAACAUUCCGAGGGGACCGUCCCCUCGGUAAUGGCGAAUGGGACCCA

variants of: B1; experiment: self-cleavage, relative activity (ratio to wild type); higher = more cleavage; co-transcriptional
Keep the answer to the number alone.

Query: Which self-cleavage reading was recorded for the variant C36G A42G ?
Result: 0.147

Query: Which self-cleavage reading was recorded for the variant A8U A87U ?
Result: 0.963

Query: Which self-cleavage reading was recorded for the variant G29C C30U ?
Result: 0.0415

Query: Which self-cleavage reading was recorded for the variant G28U U69A ?
Result: 0.162

Query: Which self-cleavage reading was recorded for the variant C61U U79A ?
Result: 0.88

Query: Which self-cleavage reading was recorded for the variant C66U C75U ?
Result: 0.173

Query: Which self-cleavage reading was recorded for the variant U46G U65A ?
Result: 0.582

Query: Which self-cleavage reading was recorded for the variant U9A U65G ?
Result: 1.11

Query: Which self-cleavage reading was recorded for the variant U47G G55C ?
Result: 1.07

Query: Which self-cleavage reading was recorded for the variant C15A C32A ?
Result: 0.151

Query: Which self-cleavage reading was recorded for the variant U20C C85A ?
Result: 0.119

Query: Which self-cleavage reading was recorded for the variant G5U G40A ?
Result: 0.364

Query: Which self-cleavage reading was recorded for the variant U47C G80C ?
Result: 0.138

Query: Which self-cleavage reading was recorded for the variant C3A U46G ?
Result: 0.026

Query: Which self-cleavage reading was recorded for the variant A43C C64A ?
Result: 0.38

Query: Which self-cleavage reading was recorded for the variant C18U A45G ?
Result: 0.306

Query: Which self-cleavage reading was recorded for the variant U9G C22G ?
Result: 0.208

Query: Which self-cleavage reading was recorded for the variant C66A G80A ?
Result: 0.54

Query: Which self-cleavage reading was recorded for the variant C13G U47G ?
Result: 0.151

Query: Which self-cleavage reading was recorded for the variant A43C G67A ?
Result: 0.322

Query: Which self-cleavage reading was recorded for the variant G29C C41G ?
Result: 0.229

Query: Which self-cleavage reading was recorded for the variant C26U C36G ?
Result: 0.162
